Sourced from patent US20250230165A1

Biological target: Human Polθ polymerase domain (aa1820-2590) (Homo sapiens, UniProt O75417)
Construct: Human Polθ polymerase domain (aa1820-2590) was expressed in E. coli; made in house; host or cells: E. coli
Sequence (O75417 1820-2590): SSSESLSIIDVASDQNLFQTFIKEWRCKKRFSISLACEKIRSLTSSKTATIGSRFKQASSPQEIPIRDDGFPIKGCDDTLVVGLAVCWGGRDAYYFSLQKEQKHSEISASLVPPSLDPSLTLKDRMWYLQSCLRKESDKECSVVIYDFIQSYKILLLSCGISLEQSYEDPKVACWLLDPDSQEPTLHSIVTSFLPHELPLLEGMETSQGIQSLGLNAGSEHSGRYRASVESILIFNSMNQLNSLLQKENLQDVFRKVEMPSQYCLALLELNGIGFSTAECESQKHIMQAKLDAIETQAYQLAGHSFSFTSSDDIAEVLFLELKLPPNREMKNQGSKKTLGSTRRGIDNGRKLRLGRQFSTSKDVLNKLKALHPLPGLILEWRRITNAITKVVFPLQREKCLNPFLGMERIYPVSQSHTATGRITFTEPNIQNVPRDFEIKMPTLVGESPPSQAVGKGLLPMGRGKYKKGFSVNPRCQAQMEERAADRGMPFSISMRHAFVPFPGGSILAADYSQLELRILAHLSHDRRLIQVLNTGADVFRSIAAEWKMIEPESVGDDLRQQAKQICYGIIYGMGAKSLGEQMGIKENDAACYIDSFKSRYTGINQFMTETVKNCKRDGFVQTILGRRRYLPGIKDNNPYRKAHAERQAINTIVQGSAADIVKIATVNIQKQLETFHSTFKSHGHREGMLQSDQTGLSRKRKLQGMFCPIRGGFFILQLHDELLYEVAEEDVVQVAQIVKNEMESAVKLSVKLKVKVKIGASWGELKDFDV
Test: Polθ Polymerase Domain Kinact/KI Assay (PicoGreen)
Type: biochemical
Settings: 0.8 nM Polθ, 100 nM DNA substrate, kobs vs [I] fit for 2-step covalent inhibitor
test-readout: log10 of Kinact/Kl (log10 of the value in M⁻¹ s⁻¹)
Note the log scale: values are log10 of Kinact/Kl expressed in M⁻¹ s⁻¹.

Some molecules with known log10 of Kinact/Kl results, for comparison:
[
  {
    "molecule": "C=CC(=O)N1Cc2nc(CN3C[C@H]4CC(=O)N(c5cc(C(F)(F)F)cc(C)n5)[C@@H]4C(=O)N(C)c4cccc(C)c43)cn2CC1C (single isomer, unassigned) [Example 206a]",
    "assayed-system": "Human Polθ polymerase domain (aa1820-2590) (Homo sapiens, UniProt O75417)",
    "observed-result": 6.64
  },
  {
    "molecule": "C=CC(=O)N1Cc2ccc(CN3C[C@H]4CC(=O)N(c5cc(C(F)(F)F)cc(C)n5)[C@@H]4C(=O)N(C)c4cccc(C)c43)nc2C1 [Example 240]",
    "assayed-system": "Human Polθ polymerase domain (aa1820-2590) (Homo sapiens, UniProt O75417)",
    "observed-result": 6.19
  },
  {
    "molecule": "C=CC(=O)N1CC(N2CC[C@@H](CN3C[C@H]4CC(=O)N(c5cc(C(F)(F)F)cc(C)n5)[C@@H]4C(=O)N(C)c4cccc(F)c43)C2)C1 [Example 214]",
    "assayed-system": "Human Polθ polymerase domain (aa1820-2590) (Homo sapiens, UniProt O75417)",
    "observed-result": 5.51
  },
  {
    "molecule": "C=CC(=O)N1CC2CC(C1)N2CCN1C[C@H]2CC(=O)N(c3cc(C(F)(F)F)cc(C)n3)[C@@H]2C(=O)N(C)c2cccc(C)c21 [Example 261]",
    "assayed-system": "Human Polθ polymerase domain (aa1820-2590) (Homo sapiens, UniProt O75417)",
    "observed-result": 5.53
  },
  {
    "molecule": "Cc1cc(C(F)(F)F)cc(N2C(=O)C[C@@H]3CN(Cc4ccc(NC(=O)/C=C/CN(C)C)c(F)c4)c4c(Cl)cccc4N(C)C(=O)[C@H]32)n1 [Example 245]",
    "assayed-system": "Human Polθ polymerase domain (aa1820-2590) (Homo sapiens, UniProt O75417)",
    "observed-result": 6.28
  }
]

## Input # log10 of Kinact/Kl lookup, item C=CC(=O)N1CC(c2nc(CN3C[C@H]4CC(=O)N(c5cc(C(F)(F)F)cc(C)n5)[C@@H]4C(=O)N(C)c4cccc(F)c43)nn2C)C1 [Example 100]
## Output 5.00

## Input Same read-out for C=CC(=O)N1CC2(CN(CCN3C[C@H]4CC(=O)N(c5cc(C(F)(F)F)cc(C)n5)[C@@H]4C(=O)N(C)c4cccc(C)c43)CC2(C)C#N)C1 (single isomer, unassigned) [Example 119a] ?
## Output 6.66

## Input Same read-out for C=CC(=O)N1CCC[C@H]1c1ccc(CN2C[C@H]3CC(=O)N(c4cc(C(F)(F)F)cc(C)n4)[C@@H]3C(=O)N(C)c3cccc(F)c32)cc1 (racemic) [Example 141b] ?
## Output 5.00

## Input Same read-out for C=CC(=O)Nc1ccc(CN2C[C@H]3CC(=O)N(c4cc(C(F)(F)F)cc(C)n4)[C@@H]3C(=O)N(C)c3cccc(Cl)c32)nc1 [Example 283] ?
## Output 5.98

## Input Same read-out for C=CC(=O)N1CC(N2CCN(CCN3C[C@H]4CC(=O)N(c5cc(C(F)(F)F)cc(C)n5)[C@@H]4C(=O)N(C)c4c(F)c(F)cc(Cl)c43)CC2)C1 [Example 20] ?
## Output 6.05

## Input Same read-out for C=CC(=O)N1CCC[C@@H]1c1noc(CN2C[C@H]3CC(=O)N(c4cc(C(F)(F)F)cc(C)n4)[C@@H]3C(=O)N(C)c3cccc(C)c32)n1 [Example 268] ?
## Output 5.61
